These measurements were taken from patent US20050208585A1.

Overview of recorded IC50 for various binders
Target: T1, human c-mpl (thrombopoietin receptor) on HU-03 cells and human platelets (human, UniProt P40238 26-635)
T1 construct: whole, on cells; also called mpl receptor; TPO receptor
T1 sequence (looked up): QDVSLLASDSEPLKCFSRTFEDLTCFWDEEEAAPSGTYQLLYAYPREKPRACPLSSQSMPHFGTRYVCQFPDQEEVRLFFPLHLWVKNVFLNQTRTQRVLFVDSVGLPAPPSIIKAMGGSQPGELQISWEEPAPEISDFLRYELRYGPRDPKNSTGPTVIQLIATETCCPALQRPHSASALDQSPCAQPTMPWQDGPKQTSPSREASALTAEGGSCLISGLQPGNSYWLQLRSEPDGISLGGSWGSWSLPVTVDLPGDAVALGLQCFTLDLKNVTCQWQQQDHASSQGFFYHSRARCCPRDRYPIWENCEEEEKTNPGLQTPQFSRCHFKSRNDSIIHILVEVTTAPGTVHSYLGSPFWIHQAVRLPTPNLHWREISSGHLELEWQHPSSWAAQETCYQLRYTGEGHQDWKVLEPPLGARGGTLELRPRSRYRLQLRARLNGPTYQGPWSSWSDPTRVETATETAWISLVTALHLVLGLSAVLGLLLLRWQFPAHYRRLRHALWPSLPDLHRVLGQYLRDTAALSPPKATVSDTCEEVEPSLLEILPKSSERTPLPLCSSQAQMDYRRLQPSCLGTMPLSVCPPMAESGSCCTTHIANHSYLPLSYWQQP
Assay: competition with 100 pM 125I-TPO for binding to HU-03 cells
Record the value in nM, omitting the unit from your answer.

Here's what some known entries look like.
Supply recorded IC50 for 12B5 IgG (antibody, V domains shown) VH: QVQLVQSGGGLVRPGGSLSLSCAVSGITLRTYGMHWVRQAPGKGLEWVAGISFDGRSEYYADSVQGRFTISRDSSKNTLYLQMNSLRAEDTAVYYCARGAHYGFDIWGQGTMVTVSS VL: DIVMTQSPSTLSASIGDRVTITCRASEGIYHWLAWYQQKPGKAPKLLIYKASSLASGAPSRFSGSGSGTDFTLTISSLQPDDFATYYCQQYSNYPLTFGGGTELEIKR here. 10

Supply recorded IC50 for 12D5 Fab (Fab, V domains shown) VH: QVQLVESGGGLVKPGGSLRLSCAASGFTFSSHNMNWVRQAPGKGLEWVSSISSSSSYIYYADSVKGRFTISRDNAKNSLYLQMNSLRAEDTAVYYCARDRGSTGMDVWGRGTLVTVSS VL: DIVMTQSPSTLSASIGDRVTITCRASEGIYHWLAWYQQKPGKAPKLLIYKASSLASGAPSRFSGSGSGTDFTLTISSLQPDDFATYYCQQYSNYPLTFGGGTELEIKR here. 500

Supply recorded IC50 for 12B5 scFv (scFv) MAQVQLVQSGGGLVRPGGSLSLSCAVSGITLRTYGMHWVRQAPGKGLEWVAGISFDGRSEYYADSVQGRFTISRDSSKNTLYLQMNSLRAEDTAVYYCARGAHYGFDIWGQGTMVTVSSGGGGTGGGGSGGGGSDIQMTQSPSTLSASIGDRVTITCRASEGIYHWLAWYQQKPGKAPKLLIYKASSLASGAPSRFSGSGSGTDFTLTISSLQPDDFATYYCQQYSNYPLTFGGGTELEIKRAA here. 10

Now look at this entry.
Supply recorded IC50 for 12E10 scFv (scFv) MAQVQLQQSGPGLVKPSETLSLTCTVSGDSISSYYWSWIRQPPGKGLEWIGYIYYSGSTNYNPSLKSRVTISVDTSKSQFSLKLSSVTAADTAVYYCARGRYFDVWGRGTMVTVSSGGGGSGGGGSGGGGSSYVLTQPPSVSGSPGQSITISCTGTSSDVGGYNYVSWYQQHPGKAPKLMIYEGSKRPSGVSNRFSGSKSGNTASLTISGLQAEDEADYYCSSYTTRSTRVFGGGTKLTVLGAA here. 5
